# targetOfAssay: Calcium/calmodulin-dependent protein kinase kinase 2 (Homo sapiens, UniProt Q96RR4)
# Sequence (Q96RR4 whole entry): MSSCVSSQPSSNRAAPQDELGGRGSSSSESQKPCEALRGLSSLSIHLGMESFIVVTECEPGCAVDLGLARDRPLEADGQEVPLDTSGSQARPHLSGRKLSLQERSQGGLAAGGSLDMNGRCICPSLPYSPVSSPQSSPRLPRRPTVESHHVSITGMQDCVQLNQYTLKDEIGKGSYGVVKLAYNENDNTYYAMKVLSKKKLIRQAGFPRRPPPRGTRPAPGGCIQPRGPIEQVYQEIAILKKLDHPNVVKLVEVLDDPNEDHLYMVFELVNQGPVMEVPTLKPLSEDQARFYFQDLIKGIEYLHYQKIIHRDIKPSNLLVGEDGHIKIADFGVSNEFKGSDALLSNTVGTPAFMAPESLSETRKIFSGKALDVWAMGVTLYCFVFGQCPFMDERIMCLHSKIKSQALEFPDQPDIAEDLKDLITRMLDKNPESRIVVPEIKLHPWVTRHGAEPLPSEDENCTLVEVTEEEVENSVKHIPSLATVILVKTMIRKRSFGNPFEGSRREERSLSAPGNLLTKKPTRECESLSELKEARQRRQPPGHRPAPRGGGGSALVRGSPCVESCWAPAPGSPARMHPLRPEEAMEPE
# assaySummary: Inhibition of GST-tagged human CAMKK2 incubated for 90 mins by TR-FRET assay
The label yes is reserved for IC50 strictly under 3 µM; no covers values equal to or above it.

These recorded examples may help you get a feel for the data.
Threshold test, IC50 < 3 µM: CC(C)(C)c1cnc(CSc2cnc(NC(=O)C3CCN(CC(=O)NCCOCCOCCOCCNc4cccc5c4C(=O)N(C4CCC(=O)NC4=O)C5=O)CC3)s2)o1 (configuration not stated)
yes

Given COc1cc(N2CCOCC2)ccc1Nc1ncc(F)c(Nc2ccccc2NS(C)(=O)=O)n1 , is recorded IC50 strictly lower than 3 µM?
yes

Regarding CN1CC[C@@H](c2c(O)cc(O)c3c(=O)cc(-c4ccccc4Cl)oc23)[C@@H]1CO , kindly confirm whether its IC50 is beneath 3 µM.
no

Regarding Cn1cc(C2=C(c3cn(CCCSC(=N)N)c4ccccc34)C(=O)NC2=O)c2ccccc21 [BISINDOLYLMALEIMIDE IX] , kindly confirm whether its IC50 is beneath 3 µM.
yes

Given CN1CC[C@H](c2c(O)cc(O)c3c(=O)cc(-c4ccccc4Cl)oc23)[C@H](O)C1 , is recorded IC50 strictly lower than 3 µM?
yes

Consider COc1cc(F)ccc1-c1ncnc(Nc2cccc(C[S@](C)(=N)=O)c2)n1 . Does its IC50 lie strictly below 3 µM?
yes

// next entry
I'd appreciate it if you could check whether CC[C@H](Nc1nc(NCc2cnc(C)cc2C)c2ncn(C(C)C)c2n1)[C@@H](C)O has IC50 smaller than 3 µM.
no
